Structures can show the parent of a compound that is named as a salt.
Item-by-item account of melting point

molecule | melting point
O=C(CN1CC2CCC(C1)N2c1ncc(F)cn1)N1CCc2nc(-c3ccccc3)oc2C1 | 193 °C
Cn1cc2c(n1)CCN(C(=O)CN1CC3CCC(C1)N3c1ccc(C(F)(F)F)cn1)C2 | 70 to 71 °C
O=C(CN1CCCN(c2cccnc2)CC1)N1CCc2nc(-c3ccccc3)sc2C1 (as salt: HCl) | 142 to 145 °C
C[C@@H]1CN(c2ncc(C(=O)O)cn2)C[C@H](C)N1CC(=O)N1CCc2nn(-c3ccccc3)cc2C1 | 94 to 97 °C
COC(=O)c1ccc(N2C3CCC2CN(CC(=O)N2Cc4nc(-c5ccccc5)sc4C2)C3)nc1 | 252 to 253 °C
O=C(CN1CCN(c2ccc(C(F)(F)F)cn2)C(=O)C1)N1CCc2nn(-c3ccc(C(F)(F)F)cn3)cc2C1 | 200 to 201 °C
O=C(CN1CC2CCC(C1)N2c1ncc(F)cn1)N1CCc2nc(-c3ccccc3)ncc2C1 | 212 to 213 °C
O=C(CN1CCN(c2ccc(C(F)(F)F)cn2)C(=O)C1)N1CCc2sc(-c3ccccc3)nc2C1 | 140 to 142 °C
O=C(CN1CCN(c2ccc(C(F)(F)F)cn2)C(=O)C1)N1CCc2oc(-c3ccccc3)nc2C1 | 140 to 142 °C
O=C(CN1CCN(c2ccnc3cc(Cl)ccc23)CC1)N1CCc2nn(-c3ccccc3)cc2C1 | 100 to 101 °C
COC(=O)c1ccc(N2CC3CCC(C2)N3CC(=O)N2CCc3nc(-c4ccccc4)sc3C2)nc1 | 162 to 163 °C
C[C@@H]1CN(c2cccnc2)C[C@H](C)N1CC(=O)N1CCc2nc(-c3ccccc3)[nH]c2C1 | 207 to 209 °C
O=C(CN1CC2CCC(C1)N2c1ncc(F)cn1)N1CCc2sc(-c3ccccc3)nc2C1 | 180 to 184 °C
COc1ccc(-n2ncc3c2CCN(C(=O)CN2CC4CCC(C2)N4c2ncc(F)cn2)C3)cc1 | 194 to 195 °C
COC(=O)c1ccc(N2CCN(CC(=O)N3CCc4nc(-c5ccccc5)sc4C3)CC2=O)nc1 | 191 to 192 °C
C[C@@H]1CN(c2cncnc2)C[C@H](C)N1CC(=O)N1CCc2nc(-c3ccccc3)sc2C1 | 215 to 216 °C
